- Test system: HL-60(TB) leukemia
- protocol.details: NCI tumour cell line growth inhibition, 48 h; in the data active means GI50 below about 0.43 µM; inactive means the rest
In this exercise, the only acceptable responses are active, inactive

Sample answers from the record:
compound	category.label
CC(=O)n1c(-c2ccc(Cl)cc2)nc2c(c1=O)C(c1ccc(Cl)cc1)c1sc3c(Cl)cccc3c1O2 (stereo not given)	active
Cc1ccc(C(=O)CC(Sc2cccc(Cl)c2Cl)c2ccc(Cl)cc2)cc1C (stereo not given)	inactive
CCCSc1cc(Cl)nc(N)n1	inactive
NC(N)=N/N=C/c1c(-c2ccccn2)nc2sc(Cl)cn12	inactive

Please look at the following compound next.
What classification did COc1ccc(C2C(C#N)=C(N)OC3=C2CCCc2ccc(F)cc23)cc1OC (stereo not given) end up with in this test?
inactive
